# maps each entry to its inhibition
# Test system: Mycobacterium tuberculosis
# Test summary: Inhibition of Mycobacterium tuberculosis AHAS catalytic subunit assessed as inhibition of acetoin formation using […] as substrate at 100 uM after 1 hr
Numbers only here, please. The scale is %.

Example entries and their recorded answers appear below.
| Structure smiles | Observed measurement |
| --- | --- |
| Cc1cccc(-c2nc3ccccc3c(=O)n2OC(=O)c2ccccc2)c1 | 40.5 |
| Cc1cccc(-c2nc3ccccc3c(=O)n2OC(=O)c2cccc(F)c2)c1 | 9.5 |
| Cc1ccc(C(=O)On2c(-c3ccccc3)nc3ccccc3c2=O)cc1 | 18 |
| Cc1ccccc1-c1nc2ccccc2c(=O)n1OC(=O)c1cccc(F)c1 | 30 |
| COc1cccc(-c2nc3ccccc3c(=O)n2OC(=O)c2cccc([N+](=O)[O-])c2)c1 | 94 |

IN: Data request, read-out inhibition, for O=C(On1c(-c2cccc(F)c2)nc2ccccc2c1=O)c1cccc(Cl)c1
OUT: 42.5

IN: Consider the compound shown here: Cc1cccc(-c2nc3ccccc3c(=O)n2OC(=O)c2cccc(C(F)(F)F)c2)c1 What is its recorded inhibition?
OUT: 9.5

Origin of measurements: ChEMBL document CHEMBL3425445
